target system: E3 ubiquitin-protein ligase Mdm2 (Homo sapiens, UniProt Q00987)
Sequence (Q00987 whole entry): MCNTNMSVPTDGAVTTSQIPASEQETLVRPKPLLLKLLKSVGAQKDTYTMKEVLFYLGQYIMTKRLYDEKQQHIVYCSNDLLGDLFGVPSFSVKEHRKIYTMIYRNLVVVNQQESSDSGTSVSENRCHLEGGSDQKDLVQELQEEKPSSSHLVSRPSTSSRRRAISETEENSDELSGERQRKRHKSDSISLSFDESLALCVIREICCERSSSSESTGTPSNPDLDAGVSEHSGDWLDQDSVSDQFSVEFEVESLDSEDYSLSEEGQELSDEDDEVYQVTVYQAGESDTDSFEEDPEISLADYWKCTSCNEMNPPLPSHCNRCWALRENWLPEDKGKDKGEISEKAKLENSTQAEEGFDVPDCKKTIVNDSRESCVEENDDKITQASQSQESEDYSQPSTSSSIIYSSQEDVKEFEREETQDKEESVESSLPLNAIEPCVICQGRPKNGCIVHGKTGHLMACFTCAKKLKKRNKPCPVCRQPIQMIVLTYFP
procedure summary: Fluorescence Anisotropy Competition Binding Assay
pIC50: −log10 of the molar value.

compound | pIC50
CC(C)CCC(=O)NC(CCC(=O)O)CN(CCCCCC1CCCCC1)C(CCCCN)CN(CCCCc1ccc(Br)cc1)C(CCC(=O)O)CN(CCCCCc1ccc(F)cc1)CCC(N)=O (stereo unspecified) [N-acylpolyamine (NAPA) scaffold, 36] | < 4.00
